endpoint label: melting point

> print(dat)
                                    molecule  endpoint.label         result
 1                     CCCCNc1nc2ccc(C)cc2s1   melting point    70 to 72 °C
 2     Cc1cc(S(C)(=O)=O)c(C)c(S(=O)(=O)Cl)c1   melting point  122 to 124 °C
 3  CC1CC(=O)c2cccc(Br)c21 (stereo not drawn)   melting point    45 to 47 °C
 4                         N#Cc1ccc(S)c(F)c1   melting point    59 to 61 °C
 5  CCOC(C)c1nc(C(=O)O)cs1 (stereo not drawn)   melting point    61 to 63 °C
 6                 Cc1ccc(C(=O)CCC(=O)O)cc1C   melting point  127 to 129 °C
 7                      COc1ccc(NC(=O)NN)cc1   melting point  146 to 148 °C
 8                  CC1=C(C(=O)O)Cc2ccccc2O1   melting point  234 to 236 °C
 9                  CNc1cc(C(=O)O)c2ccccc2n1   melting point  346 to 348 °C
10                  O=C(CCl)Nc1ccc2c(c1)CCC2   melting point  112 to 114 °C
11      CC(C)c1noc2nc(-c3ccco3)cc(C(=O)O)c12   melting point  224 to 226 °C
12                      CC1(C)Nc2ccccc2NC1=O   melting point  179 to 181 °C
13  O=C(O)C1CCc2[nH]ncc2C1 (stereo not drawn)   melting point  229 to 231 °C
14                       Oc1ccc(Nc2nnns2)cc1   melting point  159 to 161 °C
15     COC(=O)c1nc2n(n1)-c1ccccc1S(=O)(=O)N2   melting point  262 to 264 °C
16                      NS(=O)(=O)c1cn[nH]c1   melting point  200 to 202 °C
17                        Nc1ncn(C2CCCCC2)n1   melting point  129 to 131 °C
18         O=C(O)c1ccc(S(=O)(=O)N2CCOCC2)cc1   melting point  287 to 289 °C
19  CC(C)N1C2CCCC1CC(O)C2 (stereo not drawn)   melting point    59 to 61 °C
20                        Cc1nc(N)nc2c1CCCC2   melting point  181 to 185 °C
21           Cc1ccc(C(=O)O)cc1S(=O)(=O)NCC#N   melting point  212 to 214 °C
22           O=C(O)CCC(=O)N1CCN(c2ncccn2)CC1   melting point  166 to 168 °C
23  CCOC(=O)C(N)c1cccc(O)c1 (stereo not drawn)   melting point  148 to 150 °C
24                        Cc1ccccc1NC(=O)CCl   melting point    75 to 77 °C
25                         Cc1oc(N)c(C#N)c1C   melting point  163 to 169 °C
26  CC1(C2CC2)NC(=O)N(CC(=O)O)C1=O (stereo not drawn)   melting point  170 to 172 °C
27       Cc1c(C(=O)O)[nH]c2c1C(=O)CC(C)(C)C2   melting point  206 to 208 °C
28                        Clc1nnc(Cl)c(Cl)n1   melting point    56 to 58 °C
29                   O=C(O)c1ccc(Cl)c(Cl)c1O   melting point  212 to 214 °C
30                      O=C(O)c1cccnc1SC(F)F   melting point  184 to 188 °C
31                        Clc1ccc2c(c1)NCCS2   melting point  110 to 112 °C
32          O=c1[nH]c(CCl)nc2c(Br)cc(Br)cc12   melting point  248 to 252 °C
33               Cn1nc(C(=O)O)c(=O)c2ccccc21   melting point  244 to 246 °C
34                  COc1cc(C(=O)O)ccc1OC(C)C   melting point  140 to 142 °C
35                        Cc1n[nH]cc1C(=O)NN   melting point  199 to 201 °C
36            O=C(O)c1cccc(OCc2cccc(Cl)c2)c1   melting point  144 to 146 °C
37            CCc1ccc(NC(=O)c2nnc(CCl)s2)cc1   melting point  126 to 128 °C
38              NC(=NO)c1cccc(NC(=O)C2CC2)c1   melting point  229 to 231 °C
